AC50 listing for selected compounds.
MEASURED ON: UniProt:P07900
Type: functional, organism-based
Calls of active or inactive are those of the source.

{"columns": ["COMPOUND", "MEASURED ON", "AC50"],
 "data": [
  ["Oc1c(Cl)cc(Cl)c2cccnc12", "UniProt:P07900", "1.05 µM (active)"],
  ["O=C(Nc1nc(-c2ccco2)c(-c2ccco2)s1)c1ccco1", "UniProt:P07900", "5.17 µM (active)"],
  ["O=C(NCc1ccc2c(c1)OCO2)c1ccc(Br)cc1", "UniProt:P07900", "4.38 µM (active)"],
  ["Cc1ccc(C(C)C)c(OCc2ccc(C(=O)N/N=C/c3cccc(O)c3O)cc2)c1", "UniProt:P07900", "4.01 µM (active)"],
  ["O=C1NC(=S)NC(=O)C1=Cc1ccc(Br)s1", "UniProt:P07900", "25.6 µM (active)"],
  ["Cc1cccc2cc(CN(Cc3nnnn3C3CCCCC3)C3CCCC3)c3nnnn3c12", "UniProt:P07900", "2.18 µM (active)"],
  ["Cc1cc(C2CCCCC2)n(O)c(=O)c1", "UniProt:P07900", "< 0.195 µM (active)"]
]}

====

MEASURED ON: RNA-binding protein pos-1 (Caenorhabditis elegans)
Sequence (G5EF15 whole entry, the tested form may be a part): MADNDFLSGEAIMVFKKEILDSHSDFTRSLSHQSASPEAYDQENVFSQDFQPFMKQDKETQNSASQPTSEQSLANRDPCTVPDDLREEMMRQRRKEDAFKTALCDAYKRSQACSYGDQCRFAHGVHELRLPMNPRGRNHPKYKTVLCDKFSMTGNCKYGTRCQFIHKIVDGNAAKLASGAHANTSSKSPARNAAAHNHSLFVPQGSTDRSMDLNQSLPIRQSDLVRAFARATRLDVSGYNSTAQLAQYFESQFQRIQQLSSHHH
ASSAY: inhibitors of POS-1/mex-3 RNA binding, dose response, biochemical, fluorescence polarization (AID 1964);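 also: purified POS-1 fused to maltose binding protein made in E. coli; potency of compounds blocking POS-1 binding to fluorescent RNA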
The source made the active and inactive calls.

{"columns": ["COMPOUND", "MEASURED ON", "EC50"],
 "data": [
  ["O=C1NC(=O)/C(=C2\\C(=O)Nc3ccc([N+](=O)[O-])cc32)S1", "RNA-binding protein pos-1 (Caenorhabditis elegans)", "13.2 µM (active)"],
  ["COc1ccc(-c2cc3ccc(OCC(N)=O)cc3oc2=O)cc1OC", "RNA-binding protein pos-1 (Caenorhabditis elegans)", "> 300 µM (not active)"],
  ["CCOC(=O)c1cc(C(=O)OCC)cc(-n2c(C)cc(C(=O)CN3CCOCC3)c2C)c1", "RNA-binding protein pos-1 (Caenorhabditis elegans)", "> 300 µM (not active)"],
  ["N#CCC(N)=C(C#N)C#N", "RNA-binding protein pos-1 (Caenorhabditis elegans)", "54.9 µM (active)"],
  ["COc1ccc(C2CC(c3cccs3)=NN2c2ccc(C=O)cc2)cc1 (stereo unspecified)", "RNA-binding protein pos-1 (Caenorhabditis elegans)", "18.3 µM (active)"],
  ["CC1(C)CCCN(C(=O)c2coc(=O)c(Br)c2)C1", "RNA-binding protein pos-1 (Caenorhabditis elegans)", "> 300 µM (not active)"],
  ["COc1cc(NC(=O)CSc2nc3ncnc(N)c3[nH]2)c(C(=O)O)cc1OC", "RNA-binding protein pos-1 (Caenorhabditis elegans)", "29.2 µM (active)"],
  ["N#CC1=C(N)OC2=C(C(=O)CCC2)C1c1ccccc1 (stereo unspecified)", "RNA-binding protein pos-1 (Caenorhabditis elegans)", "> 300 µM (not active)"],
  ["COc1ccccc1N1C(=O)C2C(C(=O)c3ccccc3)=NN(c3ccc(C)cc3)C2C1=O (stereo unspecified)", "RNA-binding protein pos-1 (Caenorhabditis elegans)", "13.7 µM (inconclusive)"],
  ["CNC(=O)c1c(NC(=O)c2ccc(S(=O)(=O)N3CCCCC3C)cc2)sc2c1CCN(C)C2 (stereo unspecified)", "RNA-binding protein pos-1 (Caenorhabditis elegans)", "> 300 µM (not active)"],
  ["Cc1cccc2sc(NNC(=O)c3cc(=O)c4ccccc4o3)nc12", "RNA-binding protein pos-1 (Caenorhabditis elegans)", "> 300 µM (not active)"]
]}
